quantityName: melting point

CC(C)NC(=O)Nc1ccc(S(N)(=O)=O)cc1 [Compound 9, 4-(3-Isopropylureido)benzenesulfonamide] = 221 to 223 °C

Hi! Can you tell me melting point for each of these compounds?
1. CCOC(=O)c1ccc(NC(=O)Nc2ccc(S(N)(=O)=O)cc2)cc1
2. NS(=O)(=O)c1ccc(NC(=O)Nc2ccc(Cc3ccccc3)cc2)cc1
3. CCNC(=O)Nc1ccc(S(N)(=O)=O)cc1 [Compound 8, 4-(3-Ethylureido)benzenesulfonamide]
4. COc1ccc(NC(=O)Nc2ccc(S(N)(=O)=O)cc2)cc1

261 to 263 °C
230 to 232 °C
229 to 231 °C
227 to 229 °C

* * *

quantityName: melting point

Hi! Can you tell me melting point for each of these molecules?
1. COc1ccc(-c2ccccc2)cc1NC(=O)Nc1ccc(S(N)(=O)=O)cc1
2. NS(=O)(=O)c1ccc(NC(=O)Nc2ccc(C(=O)O)cc2)cc1
3. NS(=O)(=O)c1ccc(NC(=O)NC(=O)c2ccccc2)cc1

271 to 272 °C
310 to 313 °C
262 to 264 °C

Entry under review: NS(=O)(=O)c1ccc(NC(=O)Nc2cccc(F)c2)cc1 . Reported melting point?
240 to 241 °C

* * *

The listing below reports Ki for compounds tested on hCA II (Homo sapiens, UniProt P00918).
One number for each entry, in nM.

NS(=O)(=O)c1ccc(NC(=O)Nc2cccc3ccccc23)cc1 = 33.5

Next:
Request body: readout Ki, system hCA II (Homo sapiens, UniProt P00918), query NS(=O)(=O)c1ccc(NC(=O)NC(=O)c2ccccc2)cc1 . Return the value.
209

* * *

Can you tell me melting point for the items I'm about to list?

CCCCNC(=O)Nc1ccc(S(N)(=O)=O)cc1 [Compound 10, 4-(3-Butylureido)benzenesulfonamide] = 194 to 196 °C
CCCCCCNC(=O)Nc1ccc(S(N)(=O)=O)cc1 [Compound 11, 4-(3-Hexylureido)benzenesulfonamide] = 202 to 203 °C
NS(=O)(=O)c1ccc(NC(=O)Nc2ccccc2Cc2ccccc2)cc1 = 219 to 221 °C

Next:
Entry under review: NS(=O)(=O)c1ccc(NC(=O)Nc2cc(Cl)ccc2Oc2ccccc2)cc1 . Reported melting point?
209 °C

* * *

target: hCA XII (Homo sapiens)
Sequence (O43570 25-354): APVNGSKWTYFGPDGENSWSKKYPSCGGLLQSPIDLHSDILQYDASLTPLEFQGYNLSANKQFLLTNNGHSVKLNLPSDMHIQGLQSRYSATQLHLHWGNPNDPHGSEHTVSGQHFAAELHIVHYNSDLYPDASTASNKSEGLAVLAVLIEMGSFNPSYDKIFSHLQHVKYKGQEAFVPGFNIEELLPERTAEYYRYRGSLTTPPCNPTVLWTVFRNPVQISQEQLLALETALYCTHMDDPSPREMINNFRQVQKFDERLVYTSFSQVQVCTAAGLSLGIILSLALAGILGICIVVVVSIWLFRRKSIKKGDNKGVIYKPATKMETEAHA
Can you tell me Ki for the items I'm about to list?
Give bare numbers, in nM.

CC(C)NC(=O)Nc1ccc(S(N)(=O)=O)cc1 [Compound 9, 4-(3-Isopropylureido)benzenesulfonamide] = 45.9

Entry under review: NS(=O)(=O)c1ccc(NC(=O)Nc2cccc3ccccc23)cc1 . Reported Ki?
15.5

* * *

The listing below reports Ki for molecules tested on hCA I (Homo sapiens).
Sequence (P00915 whole entry): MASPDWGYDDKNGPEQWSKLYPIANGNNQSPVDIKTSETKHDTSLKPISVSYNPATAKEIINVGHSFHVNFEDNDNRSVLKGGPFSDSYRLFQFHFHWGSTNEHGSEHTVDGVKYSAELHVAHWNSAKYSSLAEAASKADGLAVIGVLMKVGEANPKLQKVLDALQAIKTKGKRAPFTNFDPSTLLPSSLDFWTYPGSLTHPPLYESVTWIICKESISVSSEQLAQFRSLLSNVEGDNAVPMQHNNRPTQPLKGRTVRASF
One number for each entry, in µM.

CC(C)NC(=O)Nc1ccc(S(N)(=O)=O)cc1 [Compound 9, 4-(3-Isopropylureido)benzenesulfonamide] = 0.448

Next:
Entry under review: COc1ccc(-c2ccccc2)cc1NC(=O)Nc1ccc(S(N)(=O)=O)cc1 . Reported Ki?
6.65

* * *

The listing below reports Ki for compounds tested on hCA IX (Homo sapiens, UniProt Q16790).
Give bare numbers, in nM.

Worked examples follow.
COc1cccc(NC(=O)Nc2ccc(S(N)(=O)=O)cc2)c1 = 210
CC(C)NC(=O)Nc1ccc(S(N)(=O)=O)cc1 [Compound 9, 4-(3-Isopropylureido)benzenesulfonamide] = 184

Request body: readout Ki, system hCA IX (Homo sapiens, UniProt Q16790), query NS(=O)(=O)c1ccc(NC(=O)Nc2cccc3ccccc23)cc1 . Return the value.
42.9
